- Tested on: SEM cells
- assay: cell viability relative to DMSO control; higher = less cytotoxic
- test.parameters: RPMI 5 mM glucose + 10% dialyzed FBS; 48 h; 46.1 µM
quantity.name: cell viability (%)
Lab book: enter the figure in %, no units written.

Known cell viability results, listed for orientation:
>  <compound>
CCn1c(-c2nonc2N)nc2cnc(Oc3cccc(NC(=O)c4ccc(OCCN5CCOCC5)cc4)c3)cc21

>  <cell viability [%]>
59.7

$$$$
>  <compound>
COc1cc2ncnc(Nc3cc(Br)c(O)c(Br)c3)c2cc1OC

>  <cell viability [%]>
61.6

$$$$
>  <compound>
CSCC[C@@H](NC(=O)[C@@H](Cc1ccccc1)NC(=O)CNC(=O)CNC(=O)[C@@H](N)Cc1ccc(O)cc1)C(=O)O

>  <cell viability [%]>
99.8

$$$$
>  <compound>
COc1ncc(-c2ccc3nccc(-c4ccnnc4)c3c2)cc1N[S+](=O)([O-])c1ccc(F)cc1F

>  <cell viability [%]>
5.89

$$$$
>  <compound>
CC(C)CC(=O)N[C@H](C(=O)N[C@H](C(=O)N[C@@H](CC(C)C)[C@@H](O)CC(=O)N[C@@H](C)C(=O)N[C@@H](CC(C)C)[C@@H](O)CC(=O)O)C(C)C)C(C)C

>  <cell viability [%]>
10.9

$$$$

Request: I am curious: what cell viability value has been reported for `COC1=C2OC(=O)\C=C/C2=CC3=C1OC=C3` ?
Result: 93.7

Request: Request the reported cell viability associated with `CNc1nccc(-c2cccnc2Oc2cc(C(=O)Nc3cccc(C(F)(F)F)c3)ccc2C)n1`
Result: 97

Request: What value of measured cell viability is listed for `COC1=CC=C(C=C1)C/2=C/OC3=C(C(=CC(=C3)O)O)C2=O` ?
Result: 132

Request: What measured cell viability goes with `NC/1=N/C2=C([NH]C=N2)C(=S)N1` ?
Result: 9.21

Request: # query: cell viability of entry C[N]1C=C(C2=C1C=CC=C2)\C3=C(\C(=O)NC3=O)C4=C5CC(CN)CC[N]5C6=C4C=CC=C6 (stereo not given)
Result: 7.7

====

- Test system: SEM cells
- assay: AUC of viability dose-response curve (% viability x log10 dose units); higher = less sensitive
- test.parameters: RPMI 5 mM glucose + 10% FBS; 48 h
Measured AUC of viability dose-response curve, listed per entry.
// return a plain number; no unit text

The cases that follow already have their AUC of viability dose-response curve on record.
>  <compound>
C[S+]([O-])(=O)C1=CC=C(C=C1)C/2=C(/C(=O)OC2)C3=CC=CC=C3

>  <AUC of viability dose-response curve>
431

$$$$
>  <compound>
NC/1=N/[C@]2(COC[C@H]2CS1)C3=CC(=CC=C3F)NC(=O)C4=NC=C(F)C=C4

>  <AUC of viability dose-response curve>
417

$$$$
>  <compound>
Cn1c(CNc2ccc(C(=N)N)cc2)nc2cc(C(=O)N(CCC(=O)O)c3ccccn3)ccc21

>  <AUC of viability dose-response curve>
469

$$$$

Request: Using the record for `CN(C)CCc1ccc(O)cc1` , report its AUC of viability dose-response curve.
Result: 455

Request: Item `O=C(NC[C@H](O)CO)c1ccncc1Nc1ccc(I)cc1F` has what recorded AUC of viability dose-response curve?
Result: 376

Request: For the compound `O=C(Nc1cc2cc[nH]c2cn1)c1ccccc1` , what AUC of viability dose-response curve is on record?
Result: 335

Request: Recorded AUC of viability dose-response curve of `CC(C)C(=O)Nc1ccc([N+](=O)[O-])c(C(F)(F)F)c1` , please.
Result: 472

Request: I would be grateful if you could share the reported AUC of viability dose-response curve for `COc1ccc(-c2nc(N3CCOCC3)c3sc(CN(C)c4ncc(C(=O)NO)cn4)cc3n2)cn1` .
Result: 113

Request: What value of AUC of viability dose-response curve has been reported for the following compound? O=C(O)C1=NC(C(=O)O)CC(/C=C/N2c3cc(O)c(OC4OC(CO)C(O)C(O)C4O)cc3CC2C(=O)O)=C1 (stereo not given)
Result: 466

====

The entries below are paired with their reported cell viability.
- System: NOMO1
- assay: cell viability relative to DMSO control; higher = less cytotoxic
- test.parameters: RPMI 5 mM glucose + 10% dialyzed FBS; 48 h; 0.00702 µM
Expressed in %, but write only the number.

>  <molecule>
O=C(O[C@H]1C[C@H]2CC[C@@H](C1)[N+]21CCCC1)C(O)(c1ccccc1)c1ccccc1.[Cl-]

>  <quantity.name>
cell viability

>  <numeric.readout>
111

$$$$
>  <molecule>
Cc1c(NC(=O)OC[C@@H]2COCCN2)cn2ncnc(Nc3ccc4c(cnn4Cc4cccc(F)c4)c3)c12

>  <quantity.name>
cell viability

>  <numeric.readout>
86.3

$$$$
>  <molecule>
C\C1=C(\C=C(\C#N)C(=O)N1)C2=CC=NC=C2

>  <quantity.name>
cell viability

>  <numeric.readout>
119

$$$$

Request: Form entry - test system: NOMO1; read-out: cell viability; molecule: `COc1ccc(-c2ccc3c(N4CCOC[C@@H]4C)nc(N4CCOC[C@@H]4C)nc3n2)cc1CO`
Result: 98.6

Request: Could you share what cell viability was measured for `N[C@H](CSC(c1ccccc1)(c1ccccc1)c1ccccc1)C(=O)O` , tested on NOMO1?
Result: 117

====

cell viability by entry:
- System: P12-Ichikawa
- assay: cell viability relative to DMSO control; higher = less cytotoxic
- test.parameters: RPMI 5 mM glucose + 10% FBS; 48 h; 0.19 µM
Give the value, in units of %, as a plain number.

>  <compound>
COC1=CC=C(C=C1)C/2=C/OC3=C(C(=CC(=C3)O)O)C2=O

>  <assayed.target>
P12-Ichikawa

>  <cell viability (%)>
120

$$$$
>  <compound>
CN1C[C@H]2c3ccccc3Oc3ccc(Cl)cc3[C@@H]2C1

>  <assayed.target>
P12-Ichikawa

>  <cell viability (%)>
95.4

$$$$
>  <compound>
CC(C)CC(=O)N[C@H](C(=O)N[C@H](C(=O)N[C@@H](CC(C)C)[C@@H](O)CC(=O)N[C@@H](C)C(=O)N[C@@H](CC(C)C)[C@@H](O)CC(=O)O)C(C)C)C(C)C

>  <assayed.target>
P12-Ichikawa

>  <cell viability (%)>
113

$$$$
>  <compound>
CC/1=C(/N2[C@H](SC1)[C@H](NC(=O)[C@H](N)\C3=C\C\C=C/C3)C2=O)C(O)=O

>  <assayed.target>
P12-Ichikawa

>  <cell viability (%)>
120

$$$$
>  <compound>
CC[C@H](C)[N]1C=C(C)C2=C1C=C(C=C2C(=O)NC\C3=C(C)\C=C(\C)NC3=O)C4=CC=C(N=C4)N5CCNCC5

>  <assayed.target>
P12-Ichikawa

>  <cell viability (%)>
113

$$$$

Request: Query: cell viability; subject: CC(N)C12CC3CC(CC(C3)C1)C2 (stereo not drawn)
Result: 118

Request: Query (compound): CCC(C)(C)c1ccc(CC(C)CN2C[C@@H](C)O[C@@H](C)C2)cc1 (stereo partly drawn) ; field requested: cell viability
Result: 82.3

Request: Give its cell viability value. Item: `C\C1=C(\C=C(C#N)/C(=O)N1)C2=C[N]3C=CN=C3C=C2`
Result: 79.2

====

- Test system: SEM cells
- assay: cell viability relative to DMSO control; higher = less cytotoxic
- test.parameters: HPLM + 10% dialyzed FBS; 48 h; 1.71 µM
quantity.name: cell viability
Quick note: number first, unit second.

>  <compound>
C=CC[C@@H]1/C=C(\C)C[C@H](C)C[C@H](OC)[C@H]2O[C@@](O)(C(=O)C(=O)N3CCCC[C@H]3C(=O)O[C@H](/C(C)=C/[C@@H]3CC[C@@H](O)[C@H](OC)C3)[C@H](C)[C@@H](O)CC1=O)[C@H](C)C[C@@H]2OC

>  <cell viability>
74.9%

$$$$
>  <compound>
Cc1cc2c(F)c(Oc3ncnn4cc(OC[C@@H](C)O)c(C)c34)ccc2[nH]1

>  <cell viability>
83.2%

$$$$
>  <compound>
CNc1nccc(-c2cccnc2Oc2cc(C(=O)Nc3cccc(C(F)(F)F)c3)ccc2C)n1

>  <cell viability>
113%

$$$$
>  <compound>
OC1CCC(Nc2ncc3nc(Nc4c(F)cc(F)cc4F)n([C@@H]4CCOC4)c3n2)CC1 (stereo partly drawn)

>  <cell viability>
107%

$$$$
>  <compound>
O=C(c1ccc(Nc2nccc(-c3cc4ccccc4s3)n2)cc1)N1CCC(N2CCCC2)CC1

>  <cell viability>
82.4%

$$$$

Request: Given `CN1\C(=C(\O)C2=CC=CC=C2[S+]1([O-])=O)C(=O)NC3=NC=C(C)S3` , state its recorded cell viability.
Result: 83.1%

Request: Request the reported cell viability associated with `C[C@]12CCC(=O)C=C1CC[C@@H]1[C@@H]2CC[C@@]2(C)[C@H]1CC[C@]2(C)O`
Result: 84.9%
